# Tested system: SARS-CoV-2 receptor binding domain (RBD) (Severe acute respiratory syndrome …, UniProt P0DTC2)
# Assay explanation: cell-based or functional assay
Measure name: IC50 of neutralisation of SARS-CoV-2 pseudovirus (293T_(ACE2) cells)

The cases that follow already have their IC50 of neutralisation of SARS-CoV-2 pseudovirus (293T_(ACE2) cells) on record.
>>> result("C202 (antibody, V domains shown) VH: EVQLVESGGGLVQPGGSLRLSCAASGFTVSSNYMSWVRQAPGKGLEWVSLIYSGGSTYYADSVKGRFTISRDNSKNTLYLQMNSLRAEDTAVYYCARDTLGRGGDYWGQGTLVTVSS VL: DIQLTQSPSSLSASVGDRVTITCQASQDISNYLNWYQQKPGKAPKLLIYDASNLETGVPSRFSGSGSGTDFTFTISSLQPEDIATYYCQQYDNLPRSFGQGTKLEIK")
"> 1 µg/mL"
>>> result("C201 (antibody, V domains shown) VH: EVQLVESGGGLVQPGRSLRLSCAASGFTFDDYAMHWVRQAPGKGLEWVSGISWNSGSIGYADSVKGRFTISRDNAKNSLYLQMNSLRAEDTALYYCVKGVEYSSSSNFDYWGQGTLVTVSS VL: IRMTQSPSSVSASVGDRVTITCRASQGISSWLAWYQQKPGKAPKLLIYVESSLQSGVPSRFSGSGSGTDFTLTISSLQPEDFATYYCQQANSFPLTFGGGTKVEIK")
"> 1 µg/mL"
>>> result("C122 (antibody, V domains shown) VH: EVQLVESGGGLIQPGGSLRLSCAASGLTVSSNYMSWVRQAPGKGLEWVSVLYSGGSSFYADSVKGRFTISRDNSKNTLYLQMNSLRAEDTAVYYCARESGDTTMAFDYWGQGTLVTVSS VL: DIQLTQSPSFLSASVGDRVTITCRASQGISSYLAWYQQKPGKAPKLLIYAASTLQSGVPSRFSGSGSGTEFTLTISSLQPEDFATYYCQQLNSDSYTFGQGTKLEIK")
"0.0228 µg/mL"
>>> result("C116 (antibody, V domains shown) VH: QVQLVESGGGVVQPGRSLRLSCAASGFTYSTYAMHWVRQAPGKGLEWVAFISYDGSNKYYADSVKGRFTISRDNSKNTLYLQMNSLRAEDTAVYYCARDFYHNWFDPWGQGTLVTVSS VL: NFMLTQPHSVSESPGKTVTISCTGSSGSIASNYVQWYQQRPGSAPTTVIYEDNQRPSGVPDRFSGSIDRSSNSASLTISGLKTEDEADYYCQSYDSGNHWVVFGGGTRLTVL")
"> 1 µg/mL"
>>> result("C143 (antibody, V domains shown) VH: EVQLVESGGGLVQPGGSLRLSCAASGFSVSTKYMTWVRQAPGKGLEWVSVLYSGGSDYYADSVKGRFTISRDNSKNALYLQMNSLRVEDTGVYYCARDSSEVRDHPGHPGRSVGAFDIWGQGTMVTVSS VL: QSALTQPASVSGSPGQSITISCTGTSNDVGSYTLVSWYQQYPGKAPKLLIFEGTKRSSGISNRFSGSKSGNTASLTISGLQGEDEADYYCCSYAGASTFVFGGGTKLTVL")
"> 1 µg/mL"

C150 (antibody, V domains shown) VH: EVQLVESGGGLVQPGGSLRLSCVASGFTFSSYWMHWVRQVPGKGPVWVSHINSEGSSTNYADSVRGRFTISRDNAKDTLYLQMNNLRAEDTAVYYCARPTAVAAAGNYFYYYGMDVWGQGTTVTVSS VL: QSALTQPASVSGSPGQSITISCTGTSSDVGYYNFVSWYQQHPGKAPKLMIYEVSNRPSGVSNRFSGSKSGNTASLIISGLQAEDEADYYCSSYRSSSTLVFGGGTKLTVL has a reported IC50 of neutralisation of SARS-CoV-2 pseudovirus (293T_(ACE2) cells) of > 1 µg/mL
